B1: Triacylglycerol hydrolase DDHD2, residues 389 to 447; numbered along this chain, O94830 (parent)
chain: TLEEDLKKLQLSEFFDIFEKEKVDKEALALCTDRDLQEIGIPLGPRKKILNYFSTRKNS

variants of: B1; assay: abundance fitness (aPCA) (normalised: wild type 0, dead -1); higher = more abundant; growth selection in yeast, the domain comes from the species named; settings: Homo sapiens
Measured attribute: abundance fitness
Please give only the number in your answer, with no unit.

Example results:
| Var | abundance fitness |
| --- | --- |
| E4R | -0.493 |
| E4A | -0.286 |
| L30E | 0.49 |
| G44Y | -0.122 |
| F18A | -0.134 |

Reported abundance fitness for K7L was -0.203

Reported abundance fitness for K47G was 0.101

Reported abundance fitness for K20N was -0.142

Reported abundance fitness for K22A was -0.039

Reported abundance fitness for K22N was 0.381

Reported abundance fitness for S54Y was -0.443

Reported abundance fitness for E4S was -0.332

Reported abundance fitness for T1K was -0.425

Reported abundance fitness for E21P was -0.27
